system: PC3 tumor xenografts; assay: PC3 human prostate tumor xenograft (Example 58); type: in vivo, nude NCRNU mice; conditions: 5.0 mg/kg i.p. daily; 3 weeks
Outcome label depends on % Tumor growth inhibition relative to 50%: at/above gives met, below gives not met.

For orientation, consider the following solved cases.
KQRFTTMPFLFCNVNDVCNFASRNDYS [T8]
not met
TMPFLFCNVNDVCNFASRNDYSYWL [T7]
met
KLFCNVNCVCNFASRNDYS (TP3 (amino acids 76-94 of SEQ ID NO10; lysine has been substituted for the phenylalanine residue at position 76 of the full-length Tumstatin molecule, and cysteine has been substituted for the aspartic acid at position 83))
met
TFNCVKNYQRLDFTSRFVMDSCANFPN (Scrambled peptide SP2) [reference compound]
not met

Shifting focus to the sequence that follows.
Decide: is the reported value of % Tumor growth inhibition for ANMSRNVFFDCTSFPVCQKFLNDTRNY (Scrambled peptide SP1) [reference compound] equal to or greater than 50%?
not met
